# experimentDescription: Pharmacokinetic studies in Beagle dogs after oral administration of SNAC-based tablets
# Format: in vivo
# conditions: dogs, oral administration (tablet)
Starred links: 1 amine or outer side, 2 acyl side, 3 side chain; linkers in the order of their positions; H or OH if unused. Non-standard residues stand in square brackets, D forms with d. Groups on a side chain read outwards from the residue. *: point of attachment. Decanoyl(10-(4-HOOC-PhO)) = O=C(O)c1ccc(OCCCCCCCCCC(=O)*)cc1; Decanoyl(10-O(3-COOH-Ph)) = O=C(O)c1cccc(OCCCCCCCCCC(=O)*)c1; γGlu = O=C(O)[C@H](CCC(=O)[*:2])N[*:1]; AEEA = NCCOCCOCC(=O)O; Aib = CC(C)(N)C(=O)O
Assign Cmax/D to each entry below.
Report only the number, with the unit kg/L understood.

I'd like to know its Cmax/D. The substance in question is H-HWEGTFTSDVSSYLEEQAAREFIEWLVRGK([AEEA-AEEA-γGlu-Decanoyl(10-(4-HOOC-PhO))])GEGGGGGASELSTAALGRLSAELHELK([AEEA-AEEA-γGlu-Decanoyl(10-(4-HOOC-PhO))])TLPRTETGSGSP-NH2 [Compound 0234]
0.35

What about H-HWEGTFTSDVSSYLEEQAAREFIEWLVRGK([AEEA-AEEA-γGlu-Decanoyl(10-(4-HOOC-PhO))])GEGGGGGASELSTAALGRLSK([AEEA-AEEA-γGlu-Decanoyl(10-(4-HOOC-PhO))])ELHELATLPRTETGSGSP-NH2 [Compound 0233] ?
0.3

What about H-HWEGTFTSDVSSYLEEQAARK([AEEA-AEEA-γGlu-Decanoyl(10-(4-HOOC-PhO))])FIEWLVRGRGEGGGGGASELSTAALGRLSAELHELK([AEEA-AEEA-γGlu-Decanoyl(10-(4-HOOC-PhO))])TLPRTETGSGSP-NH2 [Compound 0232] ?
0.51

What about H-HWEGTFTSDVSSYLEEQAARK([AEEA-AEEA-γGlu-Decanoyl(10-(4-HOOC-PhO))])FIEWLVRGRGEGGGGGASELSTAALGRLSK([AEEA-AEEA-γGlu-Decanoyl(10-(4-HOOC-PhO))])ELHELATLPRTETGSGSP-NH2 [Compound 0231] ?
0.27

What about H-H[Aib]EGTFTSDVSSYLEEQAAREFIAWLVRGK([AEEA-AEEA-γGlu-Decanoyl(10-O(3-COOH-Ph))])K([AEEA-AEEA-γGlu-Decanoyl(10-O(3-COOH-Ph))])GGGGASELSTAALGRLSAELHELATLPRTETGSGSP-NH2 [Compound 0235] ?
0.22

###

Assign EC50 to each entry below.
# targetOrSystem: human GLP-1 receptor (Homo sapiens, UniProt P43220)
# Construct: expressed in transfected cells; host or cells: BHK (Baby Hamster Kidney) cells, clone BHK 467-12A KZ-10, stably transfected, with CRE-luciferase reporter
# Sequence (P43220 24-463): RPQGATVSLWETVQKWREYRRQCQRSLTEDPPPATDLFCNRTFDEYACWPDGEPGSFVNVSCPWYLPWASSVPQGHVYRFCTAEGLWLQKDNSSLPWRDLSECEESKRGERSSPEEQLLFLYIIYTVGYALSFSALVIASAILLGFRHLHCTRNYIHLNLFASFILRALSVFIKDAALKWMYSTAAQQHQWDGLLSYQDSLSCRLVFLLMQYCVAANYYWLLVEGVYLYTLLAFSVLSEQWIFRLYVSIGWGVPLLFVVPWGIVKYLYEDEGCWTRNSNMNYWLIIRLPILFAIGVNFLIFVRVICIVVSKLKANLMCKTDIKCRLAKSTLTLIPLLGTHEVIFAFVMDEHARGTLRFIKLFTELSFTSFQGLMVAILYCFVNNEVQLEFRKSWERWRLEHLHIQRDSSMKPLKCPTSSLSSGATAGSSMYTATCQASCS
# experimentDescription: Human GLP-1 receptor in vitro potency assay (CRE-luciferase reporter, BHK cells)
# Type: cell-based
# conditions: Table 4a; BHK cells expressing human GLP-1R, CRE-Luc, 3 hours; read-out: Human GLP-1R potency [EC50 (pM)]
Starred links: 1 amine or outer side, 2 acyl side, 3 side chain; linkers in the order of their positions; H or OH if unused. Non-standard residues stand in square brackets, D forms with d. Groups on a side chain read outwards from the residue. *: point of attachment. Butyryl(4-SO2NHCO(CH2)16Tz) = O=C(CCCCCCCCCCCCCCCCc1nnn[nH]1)NS(=O)(=O)CCCC(=O)*; C20 diacid = O=C(O)CCCCCCCCCCCCCCCCCCC(=O)*; C18 diacid = O=C(O)CCCCCCCCCCCCCCCCC(=O)*; γGlu = O=C(O)[C@H](CCC(=O)[*:2])N[*:1]; AEEA = NCCOCCOCC(=O)O; Aib = CC(C)(N)C(=O)O
Report only the number, with the unit pM understood.

I'd like to know its EC50. The substance in question is H-H[Aib]EGTFTSDVSSYLEEQAAREFIAWLVK([AEEA-AEEA-γGlu-C18 diacid])GRGGGGGEASELSTAALGRLSAELHELATLPRTETGSGSP-NH2 [Compound 0144]
7.1

What about H-H[Aib]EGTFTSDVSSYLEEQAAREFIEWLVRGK(Butyryl(4-SO2NHCO(CH2)16Tz))GGGASELSTAALGRLSAELHELATLPRTETGSGSP-NH2 [Compound 0146] ?
25.7

What about H-H[Aib]EGTFTSDVSSYLEEQAARK([AEEA-AEEA-γGlu-C20 diacid])FIAWLVRGGASELSTAALGRLSAELHELATLPRTETGSGSP-NH2 [Compound 0580] ?
7.4

What about H-H[Aib]EGTFTSDVSK([AEEA-AEEA-γGlu-C18 diacid])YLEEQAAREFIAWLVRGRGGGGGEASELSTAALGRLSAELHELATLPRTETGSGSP-NH2 [Compound 0640] ?
2.3

What about H-H[Aib]EGTFTSDVSSYLEGQAAK([AEEA-AEEA-γGlu-C20 diacid])EFIAWLVRGRGQAPGQEPEASELSTAALGRLSAELHELATLPRTETGSGSP-NH2 [Compound 0157] ?
28.7

###

Assign EC50 to each entry below.
# targetOrSystem: human amylin receptor (hAmyR3) (Homo sapiens, UniProt O60896+P30988)
# Construct: host or cells: BHK cells (Hollex-1 line: human calcitonin receptor (a) + CRE-Luc), further transfected with human RAMP3
# Sequence (P30988 25-474): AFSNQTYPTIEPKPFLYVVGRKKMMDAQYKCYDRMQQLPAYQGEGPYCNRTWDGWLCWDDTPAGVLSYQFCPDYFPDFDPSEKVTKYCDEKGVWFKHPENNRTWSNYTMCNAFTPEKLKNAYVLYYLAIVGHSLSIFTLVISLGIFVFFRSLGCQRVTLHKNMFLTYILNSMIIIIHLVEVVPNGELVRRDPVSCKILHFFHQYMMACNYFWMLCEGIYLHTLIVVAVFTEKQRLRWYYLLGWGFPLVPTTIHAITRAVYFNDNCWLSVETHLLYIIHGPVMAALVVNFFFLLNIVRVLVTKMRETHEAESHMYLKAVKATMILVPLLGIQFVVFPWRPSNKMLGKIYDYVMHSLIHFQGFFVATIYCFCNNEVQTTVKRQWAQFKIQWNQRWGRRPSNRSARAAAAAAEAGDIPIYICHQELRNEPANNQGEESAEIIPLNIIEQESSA
# Sequence (O60896 24-148): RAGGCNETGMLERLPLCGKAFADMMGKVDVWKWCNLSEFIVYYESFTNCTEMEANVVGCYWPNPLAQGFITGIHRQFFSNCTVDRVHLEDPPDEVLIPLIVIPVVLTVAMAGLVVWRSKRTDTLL
# experimentDescription: Human amylin receptor in vitro potency assay (CRE-luciferase reporter, BHK cells);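 also: BHK cells expressing human calcitonin receptor plus RAMP3 (amylin-3 receptor) with a CRE-luciferase reporter, agonist activity read as luminescence from cAMP-driven transcription, 7-point serial dilutions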
# Assay type: cell-based
# conditions: Table 4a; BHK hAmyR3/CRE-Luc cells, 3 hours; read-out: Human AmyR3 potency [EC50 (pM)]
Starred links: 1 amine or outer side, 2 acyl side, 3 side chain; linkers in the order of their positions; H or OH if unused. Non-standard residues stand in square brackets, D forms with d. Groups on a side chain read outwards from the residue. *: point of attachment. C20 diacid = O=C(O)CCCCCCCCCCCCCCCCCCC(=O)*; C18 diacid = O=C(O)CCCCCCCCCCCCCCCCC(=O)*; C16 diacid = O=C(O)CCCCCCCCCCCCCCC(=O)*; γGlu = O=C(O)[C@H](CCC(=O)[*:2])N[*:1]; AEEA = NCCOCCOCC(=O)O; Aib = CC(C)(N)C(=O)O
Report only the number, with the unit pM understood.

Provide the documented EC50 with human amylin receptor (hAmyR3) (Homo sapiens, UniProt O60896+P30988) as the system for H-H[Aib]EGTFTSDVSSYLEEQAAREFIAWLVK([AEEA-AEEA-γGlu-C18 diacid])GRGGGGGEASELSTAALGRLSAELHELATLPRTETGSGSP-NH2 [Compound 0144]
16.8

What about H-H[Aib]EGTFTSDVSK([AEEA-AEEA-γGlu-C16 diacid])YLEEQAAREFIAWLVRGRK([AEEA-AEEA-γGlu-C16 diacid])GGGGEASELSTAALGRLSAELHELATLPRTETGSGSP-NH2 [Compound 0528] ?
22

What about H[Aib]EGTFTSDVSSYLEEQAARK([γGlu-C18 diacid])FIAWLVRGRK([γGlu-C18 diacid])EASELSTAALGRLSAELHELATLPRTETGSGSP-NH2 [Compound 0131] ?
14.5

What about H-H[Aib]EGTFTSDVSSYLEEQAARK([γGlu-γGlu-γGlu-γGlu-C20 diacid])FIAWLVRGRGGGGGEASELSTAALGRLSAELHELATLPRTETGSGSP-NH2 [Compound 0633] ?
5.3

###

# experimentDescription: Pharmacokinetic studies in Beagle dogs after oral administration of SNAC-based tablets
# Format: in vivo
# conditions: male, Beagle, dog, in vivo, po, Tmax (hr)
Starred links: 1 amine or outer side, 2 acyl side, 3 side chain; linkers in the order of their positions; H or OH if unused. Non-standard residues stand in square brackets, D forms with d. Groups on a side chain read outwards from the residue. *: point of attachment. C20 diacid = O=C(O)CCCCCCCCCCCCCCCCCCC(=O)*; C18 diacid = O=C(O)CCCCCCCCCCCCCCCCC(=O)*; C16 diacid = O=C(O)CCCCCCCCCCCCCCC(=O)*; γGlu = O=C(O)[C@H](CCC(=O)[*:2])N[*:1]; εLys = N[C@@H](CCCCN[*:1])C(=O)[*:2]; Trx = NC[C@H]1CC[C@H](C(=O)O)CC1; AEEA = NCCOCCOCC(=O)O; Aib = CC(C)(N)C(=O)O; Ahx = NCCCCCC(=O)O
readoutLabel: Tmax (h)
Report only the number, with the unit h understood.

I'd like to know its Tmax. The substance in question is H-H[Aib]EGTFTSDVSSYLEEQAARK([AEEA-AEEA-γGlu-C20 diacid])FIAWLVRGGASELSTAALGRLSAELHELATLPRTETGSGSP-NH2 [Compound 0580]
2

What about H-H[Aib]EGTFTSDVSK([AEEA-AEEA-γGlu-C16 diacid])YLEEQAARK([AEEA-AEEA-γGlu-C16 diacid])FIAWLVRGRQEGGGGGASELSTAALGRLSAELHELATLPRTETGSGSP-NH2 [Compound 0575] ?
1.5

What about H-H[Aib]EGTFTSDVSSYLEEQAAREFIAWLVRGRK([AEEA-AEEA-γGlu-C18 diacid])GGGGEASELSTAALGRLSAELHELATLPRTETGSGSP-NH2 [Compound 0111] ?
1.5

What about H-H[Aib]EGTFTSDVSSYLEGQAAREFIAWLVRGRGQEPK([AEEA-AEEA-γGlu-Trx-C20 diacid])GQAPEASELSTAALGRLSAELHELATLPRTETGSGSP-NH2 [Compound 0539] ?
3

What about H-H[Aib]EGTFTSDVSK([AEEA-AEEA-γGlu-C16 diacid])YLEEQAAREFIAWLVRGRK([AEEA-AEEA-γGlu-C16 diacid])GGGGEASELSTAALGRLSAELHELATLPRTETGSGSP-NH2 [Compound 0528] ?
1.5

What about H-H[Aib]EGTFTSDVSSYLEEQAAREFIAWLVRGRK([εLys-AEEA-AEEA-γGlu-C20 diacid])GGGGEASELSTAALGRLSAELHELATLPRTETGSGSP-NH2 [Compound 0552] ?
1

What about H-H[Aib]EGTFTSDVSK([AEEA-AEEA-γGlu-C16 diacid])YLEEQAARK([AEEA-AEEA-γGlu-C16 diacid])FIAWLVRGRQEASELSTAALGRLSAELHELATLPRTETGSGSP-NH2 [Compound 0578] ?
1.3

What about H-H[Aib]EGTFTSDVSK([Ahx-γGlu-γGlu-C16 diacid])YLEEQAARK([Ahx-γGlu-γGlu-C16 diacid])FIEWLVRGAAEASELSTAALGRLSAELHELATLPRTETGSGSP-NH2 [Compound 0630] ?
1.5

What about H-H[Aib]EGTFTSDVSSYLEEQAAK([εLys-AEEA-AEEA-γGlu-Trx-C20 diacid])EFIEWLVRGRGEASELSTAALGRLSAELHELATLPRTETGSGSP-NH2 [Compound 0436] ?
1.5

What about H-H[Aib]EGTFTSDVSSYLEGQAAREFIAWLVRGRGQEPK([AEEA-AEEA-γGlu-C20 diacid])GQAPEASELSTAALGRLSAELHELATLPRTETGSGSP-NH2 [Compound 0529] ?
4

What about H-H[Aib]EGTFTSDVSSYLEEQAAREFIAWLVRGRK([AEEA-AEEA-γGlu-C20 diacid])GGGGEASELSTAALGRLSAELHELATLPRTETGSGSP-NH2 [Compound 0502] ?
2

What about H-H[Aib]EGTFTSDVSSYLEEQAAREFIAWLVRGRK([AEEA-AEEA-γGlu-Trx-C20 diacid])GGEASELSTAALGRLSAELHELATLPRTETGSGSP-NH2 [Compound 0512] ?
2

What about H-H[Aib]EGTFTSDVSSYLEEK([AEEA-AEEA-γGlu-Trx-C20 diacid])AAREFIAWLVRGRGGGGEASELSTAALGRLSAELHELATLPRTETGSGSP-NH2 [Compound 0265] ?
2
